Tested on: HOP-92 NSCLC
procedureText: NCI-60 one-dose screen, 48 h
experimentalSetup: 10 µM unless noted
Experimental: Growth inhibition of the HOP-92 human Non-Small Cell Lung tumor cell line is measured as a screen for anti-cancer activity. Cells are grown in 96 well plates and exposed to the test compound for 48 hours. Compounds are tested at a single concentration, which is 10^-5 M for most compounds. The reported endpoint is percent growth (GI% or GIPRCNT), where numbers from 0 - 100% represent growth inhibition, and numbers from -100% - 0 represent cell death. […]
Compounds without any hit were thinned out: in the full panel of roughly 83,000, 20% have a hit. The source made the active and inactive calls. How the source made its calls: active means growth percent below 10; inactive means the rest.
Your answer must be one of the following: YES (active), NO (inactive)

Recorded results for 5 compounds are shown here.
O=C(Nc1ccc(I)cc1F)c1cc(Cl)ccc1O :: YES
Nc1nc(-c2cnccn2)nn1-c1nc2ccccc2s1 :: NO
CCCCCCc1cc2cc(-c3csc(/C=C/c4ccccc4)n3)c(=O)oc2cc1O :: YES
COc1cc(C(=O)O/N=C(\N)Cc2cccc3ccccc23)cc(OC)c1OC :: YES
CCCCCCC(O)(c1ccc(F)cc1)C(CN1CCOCC1)c1ccccc1 (stereo unspecified) :: YES

What classification did Nc1nc(-c2ccccc2Br)nn1-c1nc2ccccc2s1 end up with in this test? NO

What is the recorded call for this compound in the test? Clc1ccc(-c2nnc(COc3ccc(C4=NNC(c5ccco5)C4)cc3)o2)cc1 (stereo unspecified) NO

State the result this test recorded for COc1ccc2[nH]c(O)c(N=NC(=O)c3oc4ccccc4c3C)c2c1 . YES

Test call, this compound: O=C(/C=C/c1ccc(F)cc1)c1ccc(Nc2nc(NCCO)nc(Nc3ccc(Cl)cc3)n2)cc1 NO

Dear colleague, could you share the recorded outcome for S=C1CCCC(=S)N1 when you have a moment? NO

Outcome logged for CCOC(=O)c1c(C=O)nc2ccccc2c1/C=C/c1ccc(Cl)cc1 in this assay: NO

----------
Test system: 786-0 renal
procedureText: NCI-60 one-dose screen, 48 h (100 = growth as untreated, 0 = no growth, -100 = all killed)
experimentalSetup: 10 µM unless noted
Compounds without any hit were thinned out: in the full panel of roughly 83,000, 20% have a hit.
readoutLabel: growth (%)
Give the value in % but do not write % after it.

Cn1c(/C=C(\C#N)c2ccccc2)nc2c(N3CCOCC3)nc(Cl)nc21 :: -71.4

Give reported growth value for O=C1/C(=C\c2ccc[nH]2)c2ccccc2N1c1ccccc1 98.1

Read off the recorded growth for CCN1C(=O)N(CC)C2C1NN=c1s/c(=C3\C(=O)N(C(C)C)c4ccccc43)c(=O)n12 (stereo unspecified) 30.6

----------
System: MDA-MB-231 breast
procedureText: NCI-60 one-dose screen, 48 h (100 = growth as untreated, 0 = no growth, -100 = all killed)
experimentalSetup: 10 µM unless noted
This is part of a sample that, as a whole, favours compounds with a hit. Of some 83,000 tested, about 20% had one in any assay.
Reported growth is given for each of the following molecules.
Give your result in % as a bare value.

Supply recorded growth for CCN1CCN(C(=S)SCC(=O)Nc2nc3ccc(C)cc3s2)CC1 here. 104

Give the reported growth for this molecule. CN1C(=O)N(C)C2C1NN=c1s/c(=C\c3c[nH]c4ccccc34)c(=O)n12 (centres undefined) 34.7

Give the value of growth reported for the following: CC[C@]1(O)C[C@@H]2CN(CCc3c([nH]c4ccccc34)[C@@](C(=O)OC)(c3cc4c(cc3OC)N(C)[C@H]3[C@@](O)(C(=O)OC)[C@H](OC(C)=O)[C@]5(CC)C=CCN6CC[C@]43[C@@H]65)C2)C1 -15.3

Give growth for O=c1cc(-c2ccccc2)oc2cc(OCc3cn(Cc4ccc(F)cc4)nn3)cc(OCc3cn(Cc4ccc(F)cc4)nn3)c12 9.1

Please supply the value of reported growth for the item O=C1/C(=C/c2ccc(O)cc2)COc2ccc(O)c(O)c21 20.2

Let me know recorded growth for CCC1=C[C@@H]2CN(C1)Cc1c([nH]c3ccccc13)[C@@](C(=O)OC)(c1cc3c(cc1OC)N(C)[C@H]1[C@@](O)(C(=O)OC)[C@H](OC(C)=O)[C@]4(CC)[C@@H]5C[C@@H]5CN5CC[C@]31[C@@H]54)C2 , thanks. -45.4

Answer with the recorded growth for the molecule listed here: CN(C)c1ccc(/C=C/c2ccnc3c(O)cccc23)cc1 36.5
